Biological target: hFASN enzyme (full length) (Homo sapiens)
Construct: 10 μL hFASN enzyme (full length, 300 ng, purified in house); made in house
Sequence (P49327 whole entry): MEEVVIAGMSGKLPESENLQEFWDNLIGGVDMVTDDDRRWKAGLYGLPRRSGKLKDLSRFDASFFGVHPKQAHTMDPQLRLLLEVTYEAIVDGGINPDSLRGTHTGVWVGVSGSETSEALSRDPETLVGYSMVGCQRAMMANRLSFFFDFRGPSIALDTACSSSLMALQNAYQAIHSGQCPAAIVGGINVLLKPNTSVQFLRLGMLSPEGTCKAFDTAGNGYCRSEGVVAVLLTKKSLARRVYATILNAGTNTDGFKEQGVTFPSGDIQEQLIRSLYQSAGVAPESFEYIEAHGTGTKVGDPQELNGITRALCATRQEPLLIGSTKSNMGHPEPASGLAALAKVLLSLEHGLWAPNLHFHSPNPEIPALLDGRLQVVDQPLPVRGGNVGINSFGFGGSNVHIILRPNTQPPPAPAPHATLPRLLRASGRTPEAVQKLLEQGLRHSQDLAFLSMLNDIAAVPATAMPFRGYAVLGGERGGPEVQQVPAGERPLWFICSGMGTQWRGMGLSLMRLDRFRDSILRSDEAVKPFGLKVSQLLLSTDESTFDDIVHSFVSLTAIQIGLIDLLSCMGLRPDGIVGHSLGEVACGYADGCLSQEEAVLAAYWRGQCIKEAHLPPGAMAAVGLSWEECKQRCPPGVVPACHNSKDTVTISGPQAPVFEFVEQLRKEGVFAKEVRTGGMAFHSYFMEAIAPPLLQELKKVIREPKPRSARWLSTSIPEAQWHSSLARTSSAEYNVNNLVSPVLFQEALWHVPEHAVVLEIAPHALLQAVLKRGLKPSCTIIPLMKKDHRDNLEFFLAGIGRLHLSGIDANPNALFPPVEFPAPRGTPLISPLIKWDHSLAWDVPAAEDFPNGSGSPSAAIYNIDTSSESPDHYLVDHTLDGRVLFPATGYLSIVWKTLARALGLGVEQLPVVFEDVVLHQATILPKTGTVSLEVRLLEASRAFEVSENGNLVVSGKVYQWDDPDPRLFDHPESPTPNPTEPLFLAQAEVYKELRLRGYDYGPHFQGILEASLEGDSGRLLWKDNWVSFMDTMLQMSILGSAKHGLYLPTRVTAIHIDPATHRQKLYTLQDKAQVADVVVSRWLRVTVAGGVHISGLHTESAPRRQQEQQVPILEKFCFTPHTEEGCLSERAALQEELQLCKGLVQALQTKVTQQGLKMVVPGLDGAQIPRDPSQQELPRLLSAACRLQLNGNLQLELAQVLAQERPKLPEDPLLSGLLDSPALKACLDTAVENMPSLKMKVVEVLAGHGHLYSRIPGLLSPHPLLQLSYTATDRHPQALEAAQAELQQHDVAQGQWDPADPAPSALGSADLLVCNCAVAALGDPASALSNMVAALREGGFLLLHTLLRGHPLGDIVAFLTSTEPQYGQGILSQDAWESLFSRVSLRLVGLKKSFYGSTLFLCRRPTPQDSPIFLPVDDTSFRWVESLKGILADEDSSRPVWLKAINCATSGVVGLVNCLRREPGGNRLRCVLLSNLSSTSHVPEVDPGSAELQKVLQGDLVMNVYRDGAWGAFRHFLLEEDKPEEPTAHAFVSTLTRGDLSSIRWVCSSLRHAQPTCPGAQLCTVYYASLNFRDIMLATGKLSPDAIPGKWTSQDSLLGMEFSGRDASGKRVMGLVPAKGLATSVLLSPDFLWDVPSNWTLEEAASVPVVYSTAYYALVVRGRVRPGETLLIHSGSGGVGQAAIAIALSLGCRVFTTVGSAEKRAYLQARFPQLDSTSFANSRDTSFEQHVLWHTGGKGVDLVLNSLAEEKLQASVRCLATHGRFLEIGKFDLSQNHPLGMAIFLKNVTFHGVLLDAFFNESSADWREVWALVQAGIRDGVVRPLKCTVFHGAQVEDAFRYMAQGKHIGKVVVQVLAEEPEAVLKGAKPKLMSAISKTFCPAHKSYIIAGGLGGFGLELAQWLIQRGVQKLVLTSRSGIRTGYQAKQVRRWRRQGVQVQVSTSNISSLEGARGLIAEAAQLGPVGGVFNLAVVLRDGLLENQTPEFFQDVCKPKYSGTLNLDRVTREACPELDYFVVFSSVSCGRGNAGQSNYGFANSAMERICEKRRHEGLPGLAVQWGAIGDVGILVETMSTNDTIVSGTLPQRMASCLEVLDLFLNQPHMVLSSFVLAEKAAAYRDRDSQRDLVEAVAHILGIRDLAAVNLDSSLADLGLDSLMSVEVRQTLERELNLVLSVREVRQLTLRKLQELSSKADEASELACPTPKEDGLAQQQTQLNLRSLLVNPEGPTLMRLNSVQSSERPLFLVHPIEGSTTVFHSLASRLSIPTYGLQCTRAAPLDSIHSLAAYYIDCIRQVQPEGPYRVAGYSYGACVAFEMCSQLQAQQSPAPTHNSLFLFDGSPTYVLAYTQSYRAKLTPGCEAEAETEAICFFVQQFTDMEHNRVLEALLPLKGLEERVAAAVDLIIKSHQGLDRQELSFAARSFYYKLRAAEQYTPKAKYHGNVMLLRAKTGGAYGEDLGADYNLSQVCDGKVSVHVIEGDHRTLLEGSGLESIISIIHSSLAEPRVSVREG
Test: Fatty Acid Synthase (FASN) inhibition scintillation proximity assay
Assay type: biochemical
Conditions: read-out: Human FASN pIC50 (converted)
experimentalReadout: IC50

| smiles | endpointResult |
| --- | --- |
| O=C(N1CC(CN2C(=O)C3(CCOCC3)N=C2c2ccc(-c3ccc4cccnc4c3)cc2)C1)C(F)(F)F | > 10 µM |
| Cc1cc(-c2cncc(Cl)c2)ccc1C1=NC2(CCCC2)C(=O)N1C[C@@H]1CCN(C(=O)C2CC2)C1 | > 10 µM |
| COC(=O)N1CC[C@@H](CN2C(=O)C3(CN(C(=O)OC)C3)N=C2c2ccc(-c3ccc4cccnc4c3)cc2)C1 | ~10.2 µM |
| O=C(C1CC1)N1CC(CN2C(=O)C3(CC3)N=C2c2ccc(-c3cc(Cl)c4cn[nH]c4c3)cc2F)C1 | 2.95 µM |
